Value source: patent US20140135310A1

# TARGET: 5-HT1A receptor (rat hippocampus) (Rattus norvegicus)
# Construct: hippocampus; from tissue; host or cells: rat hippocampus
# Sequence (P19327 whole entry): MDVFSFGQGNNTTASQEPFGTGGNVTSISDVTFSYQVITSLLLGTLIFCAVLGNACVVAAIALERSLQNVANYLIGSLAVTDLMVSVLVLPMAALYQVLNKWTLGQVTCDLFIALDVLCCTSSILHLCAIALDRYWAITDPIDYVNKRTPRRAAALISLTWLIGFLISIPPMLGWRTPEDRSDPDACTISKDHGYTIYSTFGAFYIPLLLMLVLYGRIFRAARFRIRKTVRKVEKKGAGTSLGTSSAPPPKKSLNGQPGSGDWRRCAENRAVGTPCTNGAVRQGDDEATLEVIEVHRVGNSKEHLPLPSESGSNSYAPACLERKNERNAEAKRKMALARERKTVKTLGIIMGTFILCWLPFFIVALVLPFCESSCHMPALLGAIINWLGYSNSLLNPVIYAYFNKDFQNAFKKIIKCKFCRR
# TEST_DETAILS: Radioligand binding assay, serotoninergic 5-HT1A receptors;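 further: test compound at 1 µM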
# RUN_CONDITIONS: binding assay result in %, Table 5a

{"MOLECULE": "O=S(=O)(NC1CCN(CCCc2noc3cc(F)ccc23)C1)c1ccc2cc(Cl)ccc2c1 (stereo not drawn)", "inhibition at 1 µM, %": 24}
{"MOLECULE": "Cc1cccc(S(=O)(=O)NCC2CN(CCCc3noc4cc(F)ccc34)C2)c1", "inhibition at 1 µM, %": 29}
{"MOLECULE": "O=S(=O)(NCC1CN(CCOc2cccc3c2OCCO3)C1)c1cc2ccccc2o1", "inhibition at 1 µM, %": 98}
{"MOLECULE": "O=S(=O)(NC1CCN(CCCc2noc3cc(F)ccc23)C1)c1cccc(C(F)(F)F)c1 (stereo not drawn)", "inhibition at 1 µM, %": 18}
{"MOLECULE": "O=S(=O)(NCC1CCN(CCCc2noc3cc(F)ccc23)C1)c1ccc2c(c1)OCO2 (stereo not drawn)", "inhibition at 1 µM, %": 14}
{"MOLECULE": "O=S(=O)(NCC1CN(CCOc2cccc3ccccc23)C1)c1ccc2cc(Cl)ccc2c1", "inhibition at 1 µM, %": 87}
{"MOLECULE": "O=S(=O)(NC1CCN(CCCc2noc3cc(F)ccc23)C1)c1ccc(Cl)c(F)c1 (stereo not drawn)", "inhibition at 1 µM, %": 60}
{"MOLECULE": "Cc1c(S(=O)(=O)NCC2CN(CCOc3cccc4c3OCCO4)C2)sc2ccc(Cl)cc12", "inhibition at 1 µM, %": 75}
{"MOLECULE": "Cn1ccc2c(S(=O)(=O)NC3CCN(CCCc4noc5cc(F)ccc45)CC3)cccc21", "inhibition at 1 µM, %": 49}
{"MOLECULE": "O=C1Cc2cc(S(=O)(=O)NCC3CN(CCOc4cccc5c4OCCO5)C3)ccc2N1", "inhibition at 1 µM, %": 112}
{"MOLECULE": "COc1ccc2cc(S(=O)(=O)N[C@H]3CCN(CCCc4noc5cc(F)ccc45)C3)ccc2c1", "inhibition at 1 µM, %": 34}
{"MOLECULE": "O=S(=O)(NCC1CCN(CCOc2cccc3ccccc23)C1)c1cc2ccccc2s1 (stereo not drawn)", "inhibition at 1 µM, %": 77}
{"MOLECULE": "O=S(=O)(NC1CCN(CCCc2noc3cc(F)ccc23)C1)c1cccc(Cl)c1 (stereo not drawn)", "inhibition at 1 µM, %": 12}
{"MOLECULE": "O=S(=O)(NC1CN(CCOc2cccc3[nH]ccc23)C1)c1cccc2ccccc12", "inhibition at 1 µM, %": 100}
{"MOLECULE": "O=S(=O)(N[C@@H]1CCN(CCCc2noc3cc(F)ccc23)C1)c1cc2ccc(Cl)cc2s1", "inhibition at 1 µM, %": 45}
{"MOLECULE": "O=S(=O)(NC1CCN(CCCc2c[nH]c3ccc(F)cc23)C1)c1ccc(Cl)cc1 (stereo not drawn)", "inhibition at 1 µM, %": 99}
{"MOLECULE": "Cn1ccc2c(S(=O)(=O)NCC3CN(CCOc4cccc5c4OCCO5)C3)cccc21", "inhibition at 1 µM, %": 101}
{"MOLECULE": "O=S(=O)(NCC1CN(CCOc2cccc3ccccc23)C1)c1ccc2ccccc2c1", "inhibition at 1 µM, %": 99}
{"MOLECULE": "O=S(=O)(NC1CN(CCOc2cccc3[nH]ccc23)C1)c1ccc2ccccc2c1", "inhibition at 1 µM, %": 101}
{"MOLECULE": "O=S(=O)(NC1CCN(CCCc2c[nH]c3ccc(Cl)cc23)C1)c1ccc(F)cc1 (stereo not drawn)", "inhibition at 1 µM, %": 104}
{"MOLECULE": "Cc1c(S(=O)(=O)NCC2CN(CCOc3cccc4ccccc34)C2)sc2ccc(F)cc12", "inhibition at 1 µM, %": 78}
{"MOLECULE": "Cn1ccc2cc(S(=O)(=O)NCC3CN(CCOc4cccc5ccccc45)C3)ccc21", "inhibition at 1 µM, %": 84}
{"MOLECULE": "O=S(=O)(NCC1CN(CCOc2cccc3c2OCCO3)C1)c1ccc(Cl)c(Cl)c1", "inhibition at 1 µM, %": 98}
{"MOLECULE": "O=S(=O)(NCC1CCN(CCOc2cccc3ccccc23)C1)c1ccc2ccccc2c1 (stereo not drawn)", "inhibition at 1 µM, %": 99}
{"MOLECULE": "Cc1c(S(=O)(=O)NC2CCN(CCCc3noc4cc(F)ccc34)CC2)sc2ccc(Cl)cc12", "inhibition at 1 µM, %": -1}
{"MOLECULE": "O=S(=O)(NC1CCN(CCCc2noc3cc(F)ccc23)C1)c1ccc(Cl)s1 (stereo not drawn)", "inhibition at 1 µM, %": 0}
{"MOLECULE": "O=S(=O)(NCC1CCN(CCOc2cccc3ccccc23)C1)c1ccc(F)c(F)c1 (stereo not drawn)", "inhibition at 1 µM, %": 84}
{"MOLECULE": "Cc1cc(S(=O)(=O)NCC2CCN(CCOc3cccc4c3OCCO4)C2)c(C)s1 (stereo not drawn)", "inhibition at 1 µM, %": 98}
{"MOLECULE": "O=S(=O)(NC1CN(CCOc2cccc3[nH]ccc23)C1)c1cccc(Cl)c1", "inhibition at 1 µM, %": 98}
{"MOLECULE": "O=S(=O)(NCC1CN(CCOc2cccc3ccccc23)C1)c1cc2ccccc2s1", "inhibition at 1 µM, %": 88}
{"MOLECULE": "O=S(=O)(NC1CN(CCOc2cccc3[nH]ccc23)C1)c1ccc(F)cc1", "inhibition at 1 µM, %": 101}
{"MOLECULE": "O=S(=O)(NCC1CCN(CCCc2noc3cc(F)ccc23)C1)c1cccc(O)c1 (stereo not drawn)", "inhibition at 1 µM, %": 49}
{"MOLECULE": "O=S(=O)(NCC1CN(CCCc2noc3cc(F)ccc23)C1)c1ccc(-c2ccccc2)cc1", "inhibition at 1 µM, %": 77}
